Hi there, I'd appreciate the recorded koff for every entry that follows.
# targetOfAssay: canine FcRn (FcRn large subunit with canine beta-2-microglobulin) (canine)
# testProtocol: SPR pH 7.4, FcRn coupled at high density, IgG 400 nM
Answer in s⁻¹, number only, no unit symbol.

*Q* I'd like to know its koff. The binder in question is anti-NGF canine IgGB antibody, Fc variant A426H + T286Y (antibody, part only; not given: anti-NGF variable domains and light chain, not shown: another chain or arm of the molecule; small tags and cut ends) Fc: APEMLGGPSVFIFPPKPKDTLLIARTPEVTCVVVDLDPEDPEVQISWFVDGKQMQYAKTQPREEQFNGTYRVVSVLPIGHQDWLKGKQFTCKVNNKALPSPIERTISKARGQAHQPSVYVLPPSREELSKNTVSLTCLIKDFFPPDIDVEWQSNGQQEPESKYRTTPPQLDEDGSYFLYSKLSVDKSRWQRGDTFICHVMHEALHNHYTQESLSHSPGK
*A* 0.128

*Q* Same question for anti-NGF canine IgGB antibody, Fc variant A426Y + D312P (antibody, part only; not given: anti-NGF variable domains and light chain, not shown: another chain or arm of the molecule; small tags and cut ends) Fc: APEMLGGPSVFIFPPKPKDTLLIARTPEVTCVVVDLDPEDPEVQISWFVDGKQMQTAKTQPREEQFNGTYRVVSVLPIGHQPWLKGKQFTCKVNNKALPSPIERTISKARGQAHQPSVYVLPPSREELSKNTVSLTCLIKDFFPPDIDVEWQSNGQQEPESKYRTTPPQLDEDGSYFLYSKLSVDKSRWQRGDTFICYVMHEALHNHYTQESLSHSPGK please.
*A* 0.171

*Q* Further, for anti-NGF canine IgGB antibody, Fc variant A426Y + T286L (antibody, part only; not given: Anti-NGF variable domains, not shown: another chain or arm of the molecule; small tags and cut ends) Fc: APEMLGGPSVFIFPPKPKDTLLIARTPEVTCVVVDLDPEDPEVQISWFVDGKQMQLAKTQPREEQFNGTYRVVSVLPIGHQDWLKGKQFTCKVNNKALPSPIERTISKARGQAHQPSVYVLPPSREELSKNTVSLTCLIKDFFPPDIDVEWQSNGQQEPESKYRTTPPQLDEDGSYFLYSKLSVDKSRWQRGDTFICYVMHEALHNHYTQESLSHSPGK ?
*A* 0.092
